biological target: CYP2C19 (Homo sapiens); test: Inhibition of CYP2C19 at 10 uM; assay type: ADME
Sequence (P33261 whole entry): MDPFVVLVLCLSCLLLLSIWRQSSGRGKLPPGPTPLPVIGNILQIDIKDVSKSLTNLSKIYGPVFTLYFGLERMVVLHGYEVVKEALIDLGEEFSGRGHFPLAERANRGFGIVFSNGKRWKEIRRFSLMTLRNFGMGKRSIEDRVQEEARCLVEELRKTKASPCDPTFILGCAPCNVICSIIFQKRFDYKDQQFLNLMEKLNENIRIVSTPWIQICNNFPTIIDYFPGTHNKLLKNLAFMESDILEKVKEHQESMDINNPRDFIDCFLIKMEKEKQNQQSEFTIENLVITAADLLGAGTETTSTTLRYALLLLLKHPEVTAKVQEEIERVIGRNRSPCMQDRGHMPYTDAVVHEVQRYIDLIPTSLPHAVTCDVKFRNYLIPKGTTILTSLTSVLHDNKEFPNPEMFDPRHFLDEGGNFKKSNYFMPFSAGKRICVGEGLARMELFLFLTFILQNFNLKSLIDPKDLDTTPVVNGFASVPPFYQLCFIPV
quantity_name: inhibition at 10 µM

[[record]]
compound = "CC(C)(C)c1c(C(=O)NC2C3CC4CC(C3)CC2C4)cnn1-c1ccc(C(=O)O)cc1 (stereo unspecified)"
quantity_name = "inhibition at 10 µM"
assay_result = "< 25%"


====

experiment: in vivo; settings: rat
quantity_name: clearance (mL/min/kg)

[[record]]
compound = "CCCSc1c(C(=O)N(C)C2CCCCC2)cnn1-c1ccc(C(=O)O)cc1"
units_label = "mL/min/kg"
assay_result = 8.1

[[record]]
compound = "CCCSc1c(C(=O)NC2CCCCC2)cnn1[C@H]1CC[C@H](C(=O)O)CC1"
units_label = "mL/min/kg"
assay_result = 2.5

[[record]]
compound = "CC(C)(C)c1c(C(=O)NC2C3CC4CC(C3)CC2C4)cnn1-c1ccc(C(=O)O)cc1 (centres undefined)"
units_label = "mL/min/kg"
assay_result = 0.6

[[record]]
compound = "O=C(O)c1ccc(-n2ncc(C(=O)NC3C4CC5CC(C4)CC3C5)c2SC2CCCCC2)cc1 (centres undefined)"
units_label = "mL/min/kg"
assay_result = 3.6

[[record]]
compound = "CC(C)c1c(C(=O)NC2C3CC4CC(C3)CC2C4)cnn1-c1ccc(C(=O)O)cc1 (centres undefined)"
units_label = "mL/min/kg"
assay_result = 2.2

[[record]]
compound = "CCCSc1c(C(=O)N[C@H]2C3CC4CC2C[C@](OC(F)F)(C4)C3)cnn1-c1ccc(C(=O)O)cc1"
units_label = "mL/min/kg"
assay_result = 9.4

[[record]]
compound = "CCSc1c(C(=O)NC2C3CC4CC(C3)CC2C4)cnn1-c1ccc(C(=O)O)cc1 (centres undefined)"
units_label = "mL/min/kg"
assay_result = 3

[[record]]
compound = "CSc1c(C(=O)NC2C3CC4CC(C3)CC2C4)cnn1-c1ccc(C(=O)O)cc1 (centres undefined)"
units_label = "mL/min/kg"
assay_result = 11

[[record]]
compound = "O=C(O)c1ccc(-n2ncc(C(=O)NC3C4CC5CC(C4)CC3C5)c2C2CCC2)cc1 (centres undefined)"
units_label = "mL/min/kg"
assay_result = 1.3


====

molecular target: 11-beta-hydroxysteroid dehydrogenase 1 (Mus musculus, UniProt P50172)
Sequence (P50172 whole entry): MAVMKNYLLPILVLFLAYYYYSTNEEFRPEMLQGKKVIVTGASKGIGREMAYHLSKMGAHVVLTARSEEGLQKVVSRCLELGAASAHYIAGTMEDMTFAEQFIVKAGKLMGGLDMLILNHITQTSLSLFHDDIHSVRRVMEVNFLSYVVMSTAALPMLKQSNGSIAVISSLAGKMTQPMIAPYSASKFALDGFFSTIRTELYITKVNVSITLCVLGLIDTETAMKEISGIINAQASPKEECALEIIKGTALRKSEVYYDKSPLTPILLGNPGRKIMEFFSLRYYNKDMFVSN
pIC50: −log10 of the molar value.
quantity_name: pIC50

[[record]]
molecule = "CC(C)(C)c1c(C(=O)NC2C3CC4CC(C3)CC2C4)cnn1-c1ccc(C(=O)O)cc1 (stereo unspecified)"
quantity_name = "pIC50"
assay_result = 5.21


====

test: Plasma clearance in mouse at 1 and 3 mg/kg; assay type: ADME, organism-based; design: dose 3 mg/kg
quantity_name: clearance (mL/min/kg)

[[record]]
compound = "CC(C)(C)c1c(C(=O)NC2C3CC4CC(C3)CC2C4)cnn1-c1ccc(C(=O)O)cc1 (stereo unspecified)"
assay_result = 9


====

assay: Oral bioavailability in rat; format: ADME, organism-based; conditions: in vivo
quantity_name: bioavailability (%)

[[record]]
compound = "CCCSc1c(C(=O)NC2CCCCC2)cnn1-c1ccc(C(=O)O)cc1"
units_label = "%"
operator = "="
assay_result = 72

[[record]]
compound = "CCCSc1c(C(=O)NC2C3CC4CC(C3)CC2C4)cnn1-c1ccc(C(=O)O)cc1 (centres undefined)"
units_label = "%"
operator = "="
assay_result = 45

[[record]]
compound = "CC(C)c1c(C(=O)NC2C3CC4CC(C3)CC2C4)cnn1-c1ccc(C(=O)O)cc1 (centres undefined)"
units_label = "%"
operator = "="
assay_result = 53

[[record]]
compound = "CCCSc1c(C(=O)NC2CCCCC2)cnn1[C@H]1CC[C@@H](C(=O)O)CC1"
units_label = "%"
operator = "="
assay_result = 49

[[record]]
compound = "CCCSc1c(C(=O)N[C@H]2C3CC4CC2C[C@](OC(F)F)(C4)C3)cnn1-c1ccc(C(=O)O)cc1"
units_label = "%"
operator = "="
assay_result = 40

[[record]]
compound = "CC(C)(C)c1c(C(=O)NC2C3CC4CC(C3)CC2C4)cnn1-c1ccc(C(=O)O)cc1 (centres undefined)"
units_label = "%"
operator = "="
assay_result = 95

[[record]]
compound = "O=C(O)c1ccc(-n2ncc(C(=O)NC3C4CC5CC(C4)CC3C5)c2C(F)(F)F)cc1 (centres undefined)"
units_label = "%"
operator = ">"
assay_result = 100

[[record]]
compound = "O=C(O)c1ccc(-n2ncc(C(=O)NC3C4CC5CC(C4)CC3C5)c2C2CCC2)cc1 (centres undefined)"
units_label = "%"
operator = ">"
assay_result = 100

[[record]]
compound = "CC1(c2c(C(=O)NC3C4CC5CC(C4)CC3C5)cnn2-c2ccc(C(=O)O)cc2)CC1 (centres undefined)"
units_label = "%"
operator = ">"
assay_result = 100

